- tgt: recombinant human DAO (diamine oxidase) (Homo sapiens)
- Construct: purchased R&D systems
- Sequence (P19801 20-751): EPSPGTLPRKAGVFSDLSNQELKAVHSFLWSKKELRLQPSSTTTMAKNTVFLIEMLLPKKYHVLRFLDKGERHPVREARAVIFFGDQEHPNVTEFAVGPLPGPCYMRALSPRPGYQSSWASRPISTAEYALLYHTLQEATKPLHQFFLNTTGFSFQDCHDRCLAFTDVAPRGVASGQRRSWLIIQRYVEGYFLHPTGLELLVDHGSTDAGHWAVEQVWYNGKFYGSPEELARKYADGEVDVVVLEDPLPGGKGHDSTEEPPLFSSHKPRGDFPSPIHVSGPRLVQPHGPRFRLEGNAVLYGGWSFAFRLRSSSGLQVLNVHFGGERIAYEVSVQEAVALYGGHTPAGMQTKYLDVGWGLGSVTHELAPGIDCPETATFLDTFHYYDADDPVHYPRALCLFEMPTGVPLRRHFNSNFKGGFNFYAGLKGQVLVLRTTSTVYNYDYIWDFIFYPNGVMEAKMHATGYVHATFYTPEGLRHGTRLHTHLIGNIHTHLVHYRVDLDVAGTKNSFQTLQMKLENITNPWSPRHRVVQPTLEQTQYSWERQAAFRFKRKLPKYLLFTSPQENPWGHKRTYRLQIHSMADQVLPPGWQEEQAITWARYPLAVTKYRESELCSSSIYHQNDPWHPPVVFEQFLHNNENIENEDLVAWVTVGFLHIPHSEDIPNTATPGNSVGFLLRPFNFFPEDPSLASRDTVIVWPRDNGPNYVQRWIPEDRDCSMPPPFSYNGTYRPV
- protocol_summary: Activity on recombinant human DAO, method similar to the VAP-1 assay
- Format: biochemical
- protocol_conditions: substrate 1 mM putrescine; read-out: Inhibitory Activity (IC50, nM) DAO
Where a name gives a salt, the structure may show the parent alone.
Define the label as Y when IC50 is strictly less than 700 nM and as N in all remaining cases.

Study these solved cases before continuing.
{"molecule": "NC/C(=C\\F)Cn1ncn(Cc2ccc(-c3ccc(OCC(F)(F)F)nc3)s2)c1=O [Example 47, hydrochloride]", "tgt": "recombinant human DAO (diamine oxidase) (Homo sapiens)", "category_label": "Y"}
{"molecule": "Cc1c(-c2ccc(Cn3cnn(C/C(=C/F)CN)c3=O)s2)ccc2c1COC(=O)N2", "tgt": "recombinant human DAO (diamine oxidase) (Homo sapiens)", "category_label": "N"}
{"molecule": "N#Cc1ncc(-c2ccc(Cn3cnn(C/C(=C/F)CN)c3=O)s2)cn1 [Example 54, hydrochloride]", "tgt": "recombinant human DAO (diamine oxidase) (Homo sapiens)", "category_label": "Y"}

Exercise: Identify whether the molecule NC/C(=C\F)Cn1ncn(Cc2ccc(C#Cc3cccc(N)c3)s2)c1=O [Example 125, hydrochloride] records IC50 below 700 nM.
Key: N

Exercise: Then what about the molecule CC(=O)N1CCN(c2ccc(-c3ccc(Cn4cnn(C/C(=C/F)CN)c4=O)s3)cc2)CC1 [Example 24, hydrochloride] ?
Key: Y

Exercise: NC/C(=C\F)Cn1ncn(Cc2ccc(-c3ccc4c(c3)SCC(=O)N4)s2)c1=O [Example 85, hydrochloride] , same question.
Key: Y

Exercise: Same question, NC/C(=C\F)Cn1ncn(Cc2ccc(-c3cnc4c(c3)CCCN4)s2)c1=O this time
Key: Y

Values compiled from patent US11780830B2.
